Here, each record is paired with measured inhibition at 10 µM data.
# Subject of test: MT-2 receptor (Homo sapiens, UniProt P49286)
# Construct: expressed in transfected cells; host or cells: CHP-K1 (Chinese hamster ovary) cells (so in the source)
# Sequence (P49286 1-362): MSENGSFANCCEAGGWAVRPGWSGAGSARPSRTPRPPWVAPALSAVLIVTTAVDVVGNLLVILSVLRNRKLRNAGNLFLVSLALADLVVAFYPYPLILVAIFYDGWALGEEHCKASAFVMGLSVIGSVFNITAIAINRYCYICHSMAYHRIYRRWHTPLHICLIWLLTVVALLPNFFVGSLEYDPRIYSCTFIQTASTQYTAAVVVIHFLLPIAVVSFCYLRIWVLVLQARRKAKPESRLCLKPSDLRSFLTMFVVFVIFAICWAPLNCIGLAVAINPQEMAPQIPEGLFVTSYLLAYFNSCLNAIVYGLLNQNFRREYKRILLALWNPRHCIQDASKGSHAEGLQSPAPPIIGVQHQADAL
# Method notes: 125I-melatonin binding in membranes of CHP-K1 cells, MT-2
# Test settings: 10 μM; 0.05 nM 125I-melatonin; read-out: MT-2 receptor binding % inhibition by 10 μM
Write it as a number; the unit % goes unstated.

Observe how each entry below is paired with its result.
COc1ccc2[nH]cc(CCNC(=O)c3ccc(=O)oc3)c2c1; 95
COc1ccc2[nH]cc(CCNC(=O)c3cc(=O)cc(C(=O)O)o3)c2c1; 89
COc1ccc2[nH]cc(CCNC(=O)c3cc(=O)c(OC)co3)c2c1; 93

Qu. Form field - read-out: inhibition at 10 µM; system: MT-2 receptor (Homo sapiens, UniProt P49286); submitted item: COc1ccc2[nH]cc(CCOC(=O)c3cc(=O)c(O)co3)c2c1
Ans. 78

* * *

Here, each record is paired with measured log10 of IC50 data.
# Subject of test: MT-2 receptor (Homo sapiens, UniProt P49286)
# Construct: expressed in transfected cells; host or cells: CHP-K1 (Chinese hamster ovary) cells (so in the source)
# Method notes: 125I-melatonin binding in membranes of CHP-K1 cells, MT-2
# Test settings: 0.05 nM 125I-melatonin, 25° C., 4 hours; read-out: MT-2 receptor binding IC50
Answers are given as log10 of IC50 in µM.

COc1ccc2[nH]cc(CCNC(=O)c3ccc(=O)oc3)c2c1; -0.43

Could you now look at the following compound, please?
Qu. Give the measured log10 of IC50 of COc1ccc2[nH]cc(CCNC(=O)c3cccc(=O)o3)c2c1 .
Ans. 0.70

* * *

# Subject of test: 5-HT7 receptor (Homo sapiens, UniProt P34969)
# Construct: expressed in transfected cells; host or cells: CHO-K1
# Sequence (P34969 whole entry): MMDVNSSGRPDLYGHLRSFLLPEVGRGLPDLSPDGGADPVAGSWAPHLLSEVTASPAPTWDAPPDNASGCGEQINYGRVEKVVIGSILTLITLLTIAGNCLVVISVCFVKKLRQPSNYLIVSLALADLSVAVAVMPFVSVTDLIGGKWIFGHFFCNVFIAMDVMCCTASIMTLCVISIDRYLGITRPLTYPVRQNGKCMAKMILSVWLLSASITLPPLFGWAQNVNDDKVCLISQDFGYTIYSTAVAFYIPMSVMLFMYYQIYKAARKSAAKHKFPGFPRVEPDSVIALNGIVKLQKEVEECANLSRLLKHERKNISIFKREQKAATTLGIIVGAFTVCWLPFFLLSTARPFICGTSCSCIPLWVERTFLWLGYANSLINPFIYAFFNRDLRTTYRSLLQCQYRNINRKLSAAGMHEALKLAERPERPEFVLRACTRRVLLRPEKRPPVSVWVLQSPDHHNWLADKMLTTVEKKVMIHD
# Method notes: Serotonin receptor binding, [3H] LSD, CHO-K1 membranes
# Test settings: read-out: 5-HT7 KI
Here, each record is paired with measured pKi data.
Lab note: report pKi as minus log10 of the concentration in molar units, number only.

COc1ccc2[nH]cc(CCNC(=O)c3ccc(=O)oc3)c2c1; 6.42

Qu. Give the measured pKi of COc1ccc2[nH]cc(CCNC(=O)c3cc(=O)c(OC)co3)c2c1 .
Ans. 6.38

* * *

# Subject of test: 5-HT1A receptor (Homo sapiens)
# Construct: expressed in transfected cells; host or cells: CHO-K1
# Sequence (P08908 whole entry): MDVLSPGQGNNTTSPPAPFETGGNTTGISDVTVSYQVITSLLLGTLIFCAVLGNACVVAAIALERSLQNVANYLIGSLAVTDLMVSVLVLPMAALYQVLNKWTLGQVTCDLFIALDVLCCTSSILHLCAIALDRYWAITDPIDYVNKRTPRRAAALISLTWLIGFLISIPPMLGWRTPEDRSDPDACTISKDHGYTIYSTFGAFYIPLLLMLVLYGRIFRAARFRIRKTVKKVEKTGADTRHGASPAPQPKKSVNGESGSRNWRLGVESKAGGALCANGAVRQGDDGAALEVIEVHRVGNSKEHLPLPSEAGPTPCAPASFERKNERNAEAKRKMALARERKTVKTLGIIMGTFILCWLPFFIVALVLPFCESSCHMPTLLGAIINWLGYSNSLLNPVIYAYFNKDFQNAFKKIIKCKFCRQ
# Method notes: Serotonin receptor binding, [3H] 8-OH-DPAT, CHO-K1 membranes
# Test settings: read-out: 5-HT1A KI
Here, each record is paired with measured pKi data.
Lab note: report pKi as minus log10 of the concentration in molar units, number only.

Observe how each entry below is paired with its result.
COc1ccc2[nH]cc(CCNC(=O)c3cc(=O)cc(C(=O)O)o3)c2c1; 6.24
COc1ccc2[nH]cc(CCNC(=O)c3cc(=O)c(OC)co3)c2c1; 5.96
COc1ccc2[nH]cc(CCNC(=O)c3cc(=O)cco3)c2c1; 5.95

Could you now look at the following compound, please?
Qu. Give the measured pKi of COc1ccc2[nH]cc(CCNC(=O)c3ccc(=O)oc3)c2c1 .
Ans. 6.19
